ASSAY_SYSTEM: UGT1A9 (Homo sapiens)
Sequence (O60656 26-530): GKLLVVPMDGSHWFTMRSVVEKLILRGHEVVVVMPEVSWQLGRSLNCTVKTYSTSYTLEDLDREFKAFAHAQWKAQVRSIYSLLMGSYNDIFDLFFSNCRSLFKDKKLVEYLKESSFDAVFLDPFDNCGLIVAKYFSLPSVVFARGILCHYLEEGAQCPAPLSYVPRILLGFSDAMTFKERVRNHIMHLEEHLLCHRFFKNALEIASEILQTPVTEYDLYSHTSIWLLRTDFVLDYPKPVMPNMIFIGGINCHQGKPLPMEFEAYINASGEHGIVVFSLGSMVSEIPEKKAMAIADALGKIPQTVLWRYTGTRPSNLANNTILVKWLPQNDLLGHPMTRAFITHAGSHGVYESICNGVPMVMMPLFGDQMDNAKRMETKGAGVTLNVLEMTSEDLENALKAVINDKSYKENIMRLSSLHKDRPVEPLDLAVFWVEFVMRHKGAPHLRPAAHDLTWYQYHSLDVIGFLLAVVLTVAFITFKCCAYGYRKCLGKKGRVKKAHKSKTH
TEST_SUMMARY: in vitro
PARTICULARS: pH 7.5, % of control metabolism, raloxifene G1
MEASUREMENT_TYPE: activity at 15 min, 10 µM

Param item = COc1cc(C2Oc3cc([C@H]4Oc5cc(O)cc(O)c5C(=O)[C@@H]4O)ccc3OC2CO)ccc1O (stereo partly shown) ; retrieve measured activity at 15 min, 10 µM.
93%

====

The following compounds are shown together with reported % of control metabolism, raloxifene G2 values.
Tested on: UGT enzymes of human liver microsomes
TEST_SUMMARY: Inhibition of raloxifene glucuronidation (G1, G2) in human liver microsomes
Assay type: biochemical
PARTICULARS: raloxifene 50 μM; inhibitor 100 μM

Example results:
O=C(O[C@@H]1Cc2c(O)cc(O)cc2O[C@H]1c1cc(O)c(O)c(O)c1)c1cc(O)c(O)c(O)c1 [Gallocatechin gallate]
29 (1) %
O=C(O)c1cc(-c2ccc(F)cc2F)ccc1O [Diflunisal, reference compound]
34 (1) %
C#C[C@]1(O)CC[C@H]2[C@@H]3CCc4cc(O)ccc4[C@H]3CC[C@@]21C [17-α-Ethinylestradiol, 17-α-ethinylestradiol, reference compound]
56 (3) %

Param item = O=C(OC[C@H]1O[C@@H](OC(=O)c2cc(O)c(O)c(OC(=O)c3cc(O)c(O)c(O)c3)c2)[C@H](OC(=O)c2cc(O)c(O)c(OC(=O)c3cc(O)c(O)c(O)c3)c2)[C@@H](OC(=O)c2cc(O)c(O)c(OC(=O)c3cc(O)c(O)c(O)c3)c2)[C@@H]1OC(=O)c1cc(O)c(O)c(OC(=O)c2cc(O)c(O)c(O)c2)c1)c1cc(O)c(O)c(OC(=O)c2cc(O)c(O)c(O)c2)c1 ; retrieve measured % of control metabolism, raloxifene G2.
0 (0), 0 (0) %

Param item = O=c1c(O)c(-c2ccc(O)c(O)c2)oc2cc(O)cc(O)c12 ; retrieve measured % of control metabolism, raloxifene G2.
13 (2) %

====

ASSAY_SYSTEM: UniProtKB O60656
TEST_SUMMARY: Inhibition of raloxifene glucuronidation by recombinant UGT1A9 Supersomes
PARTICULARS: human, Supersomes with recombinant human UGT1A9, pH 7.5, probe raloxifene 50 μM, formation of glucuronide G2, % of control metabolism, raloxifene G2, UGT1A9; inhibitor 50 μM
The following compounds are shown together with reported activity at 15 min, 50 µM values.
Kindly format the answer as number then unit.

Example results:
CC/C(=C(/CC)c1ccc(O)cc1)c1ccc(O)cc1 [Diethylstilbestrol, reference compound]
245%
COc1c(C)c2c(c(O)c1C/C=C(\C)CCC(=O)O)C(=O)OC2 [Mycophenolic acid, reference compound]
83%
O=c1c(O)c(-c2ccc(O)c(O)c2)oc2cc(O)cc(O)c12 [Quercetin]
24%
O=C(O[C@@H]1Cc2c(O)cc(O)cc2O[C@H]1c1cc(O)c(O)c(O)c1)c1cc(O)c(O)c(O)c1 [Gallocatechin gallate]
44%
O=C(OC[C@H]1O[C@@H](OC(=O)c2cc(O)c(O)c(OC(=O)c3cc(O)c(O)c(O)c3)c2)[C@H](OC(=O)c2cc(O)c(O)c(OC(=O)c3cc(O)c(O)c(O)c3)c2)[C@@H](OC(=O)c2cc(O)c(O)c(OC(=O)c3cc(O)c(O)c(O)c3)c2)[C@@H]1OC(=O)c1cc(O)c(O)c(OC(=O)c2cc(O)c(O)c(O)c2)c1)c1cc(O)c(O)c(OC(=O)c2cc(O)c(O)c(O)c2)c1 [Tannic acid]
42%

Okay, now this compound:
Param item = CCCCCCCCOC(=O)c1cc(O)c(O)c(O)c1 [Octyl gallate] ; retrieve measured activity at 15 min, 50 µM.
70%

Values compiled from patent US20030215462A1.
